# measuredOn: T1, mutant human CD20 #4 (N166D) (human, UniProt P11836 1-297)
# T1 construct: Stably expressed on MG87 cells
# T1 sequence: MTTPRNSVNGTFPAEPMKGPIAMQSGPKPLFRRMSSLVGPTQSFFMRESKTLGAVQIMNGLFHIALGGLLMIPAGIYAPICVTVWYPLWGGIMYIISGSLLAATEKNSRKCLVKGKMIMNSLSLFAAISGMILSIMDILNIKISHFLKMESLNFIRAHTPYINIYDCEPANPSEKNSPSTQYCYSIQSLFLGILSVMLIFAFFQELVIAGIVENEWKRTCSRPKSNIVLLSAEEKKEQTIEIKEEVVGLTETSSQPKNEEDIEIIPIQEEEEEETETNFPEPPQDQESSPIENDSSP
# protocolSummary: FACS, mutant-hCD20 MG87 cells; 100%=best antibody
Percent of Binding to Mutant Human CD20 by entry:
Note: unit % is implicit; provide only the numeric part.

8G6-5 (antibody, V domains shown, Fully human IgG, constant region not specified; also called 8G6-5N) VH: EVQLAESGGDLVQSGRSLRLSCAASGITFHDYAMHWVRQPPGKGLEWVSGISWNSDYIGYADSVKGRFTISRDNAKKSLYLQMNSLRPDDTALYYCVKDFHYGSGSNYGMDVWGQGTTVTVSP VL: EIVMTQSPATLSMSPGERATLSCRASQSVSRNLAWYQQKVGQAPRLLISGASTRATGIPARFSGSGSGTEFTLTINSLQSEDFAVYYCQQSNDWPLTFGQGTRLEIK    70
6F6-1 (antibody, V domains shown, Fully human IgG, constant region not specified; also called 6F6-1N) VH: AVQLVESGGGLVQPGRSLRLSCAASGFTFRDYAMHWVRQGPGKGLEWVSGISWNTDYIGYADSVKGRFTISRDNAKNSLYLQMNSLRPEDTALYYCAKDARYGRDNYYGMDVWGQGTTVTVSS VL: EIVMTQSPATLSVSPGERATLSCRASQSVSHNLAWYQQKPGQAPRLLIYGAYTRATGIPDRFSGTGSGTEFTLTISSLQSEDFAVFYCQQYNNWPLTFGGGTKVEIK    85
10E3-17 (antibody, V domains shown, Fully human IgG, constant region not specified; also called 10E3-17N) VH: EVQLVESGGGLVQPGRSLRLSCAASGFTFRDYAMHWVRQVPGKGLEWVSGISWNRGTIGYADSVKGRFTISRDNAKNSLFLQMNSLRADDTALYYCAKDHYYGSGSPYGMDVWGQGTTVTVSS VL: EIVLTQSPATLALSPGERATLSCRASQSVSKYLAWYQQKPGQAPRLLIYDASKRVTGIPGRLSGSGSGTDFTLTISSLEPEDFALYYCQQSSNWPITFGQGTRVEIK    1

Would you kindly look at the next entry?
Q: Could you tell me which Percent of Binding to Mutant Human CD20 is on file for 3H7-6 (antibody, V domains shown, Fully human IgG, constant region not specified; also called 3H7-6N) VH: EVQLVESGGGLVQPGRSLRLSCAASGFTFYDYAMHWVRQAPGKGLEWVSGISWNSGYIGYADSVKGRFTISRDNAKNSLYLQMNSLRAEDTALYYCAKDNSYGKFYYGLDVWGQGTTVTVSS VL: EIVMTQSPATLSVSPGERTTLSCRASQSVSSNLAWYLQKPGQAPRLLIYGASTRATGIPARFSGSGSGTEFILTISSLQSEDFAVYYCQQYNNWPITFGQGTRLEIK ?
A: 4
